Target: human β3 adrenergic receptor (Homo sapiens)
Construct: expressed in transfected cells; host or cells: Chinese hamster ovary (CHO) cells, stably transfected
Assay: Beta-3 agonist in vitro functional assay: cAMP production (LANCE TR-FRET) in CHO cells stably transfected with the cloned β3 receptor
Assay type: cell-based
Conditions: Table 5; cAMP, CHO cells; read-out: Human β3 agonist functional activity
pEC50: −log10 of the molar value.
Listed below: pEC50 values for each entry.

Compound: CS(=O)(=O)c1ccccc1OC1CCN(C(=O)c2ccc(C[C@@H]3CC[C@H]([C@H](O)c4ccccc4)N3)cc2)CC1 [Example 156]
Result: 7.00 to 8.00

Write down the reported pEC50 of O=C(c1ccc(C[C@@H]2CC[C@H]([C@H](O)c3ccccc3)N2)cc1)N1CCC(N2Cc3ccccc3NC2=O)CC1 [Example 72] , test system: human β3 adrenergic receptor (Homo sapiens). 6.00 to 7.00

Write down the reported pEC50 of O=C(c1ccc(C[C@@H]2CC[C@H]([C@H](O)c3ccccc3)N2)cc1)N1CCC(n2c(=O)[nH]c3ccccc32)CC1 [Example 74] , test system: human β3 adrenergic receptor (Homo sapiens). 6.00 to 7.00

Write down the reported pEC50 of O=C(c1ccc(C[C@@H]2CC[C@H]([C@H](O)c3ccccc3)N2)cc1)N1CCCCC1 [Example 67] , test system: human β3 adrenergic receptor (Homo sapiens). 6.00 to 7.00

Write down the reported pEC50 of O=C(c1ccc(C[C@@H]2CC[C@H]([C@H](O)c3ccccc3)N2)cc1)N1CCC(Cc2ccccc2F)CC1 [Example 144] , test system: human β3 adrenergic receptor (Homo sapiens). 7.00 to 8.00

Write down the reported pEC50 of O=C(c1ccc(C[C@@H]2CC[C@H]([C@H](O)c3ccccc3)N2)cc1)N1CCC(S(=O)(=O)O)CC1 [Example 141] , test system: human β3 adrenergic receptor (Homo sapiens). 7.00 to 8.00

Write down the reported pEC50 of CNC(=O)c1ccccc1OC1CCN(C(=O)c2ccc(C[C@@H]3CC[C@H]([C@H](O)c4ccccc4)N3)cc2)CC1 [Example 157] , test system: human β3 adrenergic receptor (Homo sapiens). 6.00 to 7.00

* * *

Biological target: human β3 adrenergic receptor (Homo sapiens, UniProt P13945)
Construct: expressed in transfected cells; host or cells: Chinese hamster ovary (CHO) cells, stably transfected
Sequence (P13945 whole entry): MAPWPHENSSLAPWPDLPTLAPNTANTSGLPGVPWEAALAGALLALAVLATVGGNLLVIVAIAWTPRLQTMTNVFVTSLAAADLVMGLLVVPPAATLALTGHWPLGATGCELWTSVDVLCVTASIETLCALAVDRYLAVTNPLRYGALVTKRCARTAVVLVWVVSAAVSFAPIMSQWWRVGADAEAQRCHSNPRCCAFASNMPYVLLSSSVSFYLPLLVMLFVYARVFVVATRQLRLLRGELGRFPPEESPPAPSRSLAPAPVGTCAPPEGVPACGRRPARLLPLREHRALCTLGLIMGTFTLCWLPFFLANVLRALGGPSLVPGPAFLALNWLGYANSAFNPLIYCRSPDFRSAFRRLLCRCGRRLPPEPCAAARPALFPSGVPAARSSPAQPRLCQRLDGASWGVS
Assay: Beta-3 agonist in vitro functional assay: cAMP production (LANCE TR-FRET) in CHO cells stably transfected with the cloned β3 receptor
Format: cell-based
Conditions: Table 11; cAMP, CHO cells; read-out: Human β3 agonist functional activity
Description: Chinese hamster ovary (CHO) cells, stably transfected with the cloned β-adrenergic receptor (β1, β2 or β3) are harvested after 3 days of subculturing. Harvesting of cells is done with Enzyme-free Dissociation Media (Specialty Media). Cells are then counted and resuspended in assay buffer (Hank's Balanced salt solution supplemented with 5 mM HEPES, […]) containing a phosphodiesterase inhibitor (IBMX, 0.6 mM). […]
pEC50: −log10 of the molar value.
Listed below: pEC50 values for each entry.

Compound: O=C(c1ccc(C[C@@H]2CC[C@H]([C@H](O)c3ccccc3)N2)cc1)N1C2CCC1CN(c1nccs1)C2
Tested Target: human β3 adrenergic receptor (Homo sapiens, UniProt P13945)
pEC50: 7.00 to 8.00
//
Compound: C[C@@H](c1ccccn1)N1CC2CC1CN2C(=O)c1ccc(C[C@@H]2CC[C@H]([C@H](O)c3ccccc3)N2)cc1 (stereo partly shown)
Tested Target: human β3 adrenergic receptor (Homo sapiens, UniProt P13945)
pEC50: 6.00 to 7.00
//
Compound: C[C@H](c1ccccn1)N1CC2CCC1CN2C(=O)c1ccc(C[C@@H]2CC[C@H]([C@H](O)c3ccccc3)N2)cc1 (stereo partly shown)
Tested Target: human β3 adrenergic receptor (Homo sapiens, UniProt P13945)
pEC50: 6.00 to 7.00

In the following, a different compound is considered.
Write down the reported pEC50 of C[C@@H]1CN(Cc2ccccn2)CCN1C(=O)c1ccc(C[C@@H]2CC[C@H]([C@H](O)c3ccccc3)N2)cc1 , test system: human β3 adrenergic receptor (Homo sapiens, UniProt P13945). 6.00 to 7.00

* * *

Molecular target: human β3 adrenergic receptor (Homo sapiens, UniProt P13945)
Construct: expressed in transfected cells; host or cells: Chinese hamster ovary (CHO) cells, stably transfected
Assay: Beta-3 agonist in vitro functional assay: cAMP production (LANCE TR-FRET) in CHO cells stably transfected with the cloned β3 receptor
Assay type: cell-based
Settings: Table 5; cAMP, CHO cells; read-out: Human β3 agonist functional activity
Result Type: EC50

Completed entries (count: 5):
Mol Smiles: O=C(c1ccc(C[C@@H]2CC[C@H]([C@H](O)c3ccccc3)N2)cc1)N1CCC(c2nc(-c3cnccn3)no2)CC1
EC50: 100 to 999 nM
--
Mol Smiles: O=C(c1ccc(C[C@@H]2CC[C@H]([C@H](O)c3ccccc3)N2)cc1)N1CCC(COc2cnccn2)CC1
EC50: 10 to 99.9 nM
--
Mol Smiles: O=C(c1ccc(C[C@@H]2CC[C@H]([C@H](O)c3ccccc3)N2)cc1)N1CCC(c2nc(-c3cccnc3)no2)CC1
EC50: 100 to 999 nM
--
Mol Smiles: O=C(c1ccc(C[C@@H]2CC[C@H]([C@H](O)c3ccccc3)N2)cc1)N1CCC(Cc2ccc(F)cc2)CC1
EC50: 10 to 99.9 nM
--
Mol Smiles: O=C(c1ccc(C[C@@H]2CC[C@H]([C@H](O)c3ccccc3)N2)cc1)N1CCC(c2nnc(-c3cnccn3)[nH]2)CC1
EC50: 100 to 999 nM

Tell me the measured EC50 of O=C(c1ccc(C[C@@H]2CC[C@H]([C@H](O)c3ccccc3)N2)cc1)N1CCC(n2ccccc2=O)CC1 , please. 100 to 999 nM

Tell me the measured EC50 of Cc1cnnn1C1CCN(C(=O)c2ccc(C[C@@H]3CC[C@H]([C@H](O)c4ccccc4)N3)cc2)CC1 , please. 100 to 999 nM

Tell me the measured EC50 of O=C(c1ccc(C[C@@H]2CC[C@H]([C@H](O)c3ccccc3)N2)cc1)N1CCC(n2ncnn2)CC1 , please. 1 to 9.9 nM

Tell me the measured EC50 of O=C(OCc1ccccc1)C1CCN(C(=O)c2ccc(C[C@@H]3CC[C@H]([C@H](O)c4ccccc4)N3)cc2)CC1 , please. 10 to 99.9 nM

* * *

Listed below: EC50 values for each entry.
Biological target: human β3 adrenergic receptor (Homo sapiens)
Construct: expressed in transfected cells; host or cells: Chinese hamster ovary (CHO) cells, stably transfected
Test: Beta-3 agonist in vitro functional assay: cAMP production (LANCE TR-FRET) in CHO cells stably transfected with the cloned β3 receptor
Assay type: cell-based
Details: Table 9; Beta-3 agonist in vitro functional assay; read-out: Human β3 agonist functional activity

Completed entries (count: 4):
Compound: O=C(c1ccc(C[C@@H]2CC[C@H]([C@H](O)c3ccccc3)N2)cc1)N1CCN(c2nsc3ccccc23)CC1
Result Type: EC50
Result: 0.01 to 0.0999 µM

Compound: Cn1nnnc1CN1CCN(C(=O)c2ccc(C[C@@H]3CC[C@H]([C@H](O)c4ccccc4)N3)cc2)CC1
Result Type: EC50
Result: 0.01 to 0.0999 µM

Compound: CC(c1cnccn1)N1CCN(C(=O)c2ccc(C[C@@H]3CC[C@H]([C@H](O)c4ccccc4)N3)cc2)CC1 (stereo partly shown)
Result Type: EC50
Result: 0.01 to 0.0999 µM

Compound: O=C(c1ccc(C[C@@H]2CC[C@H]([C@H](O)c3ccccc3)N2)cc1)N1CCN(c2ncc3ccccc3n2)CC1
Result Type: EC50
Result: 0.1 to 0.999 µM

Tell me the measured EC50 of CCOc1cccnc1N1CCN(C(=O)c2ccc(C[C@@H]3CC[C@H]([C@H](O)c4ccccc4)N3)cc2)CC1 , please. 0.01 to 0.0999 µM

Tell me the measured EC50 of COC(=O)c1csc(N2CCN(C(=O)c3ccc(C[C@@H]4CC[C@H]([C@H](O)c5ccccc5)N4)cc3)CC2)n1 , please. 0.1 to 0.999 µM

Tell me the measured EC50 of CC(C)n1nnnc1CN1CCN(C(=O)c2ccc(C[C@@H]3CC[C@H]([C@H](O)c4ccccc4)N3)cc2)CC1 , please. 0.01 to 0.0999 µM

* * *

Biological target: human β3 adrenergic receptor (Homo sapiens)
Construct: expressed in transfected cells; host or cells: Chinese hamster ovary (CHO) cells, stably transfected
Assay: Beta-3 agonist in vitro functional assay: cAMP production (LANCE TR-FRET) in CHO cells stably transfected with the cloned β3 receptor
Assay type: cell-based
Conditions: Table 5; cAMP, CHO cells; read-out: Human β3 agonist functional activity
Description: Chinese hamster ovary (CHO) cells, stably transfected with the cloned β-adrenergic receptor (β1, β2 or β3) are harvested after 3 days of subculturing. Harvesting of cells is done with Enzyme-free Dissociation Media (Specialty Media). Cells are then counted and resuspended in assay buffer (Hank's Balanced salt solution supplemented with 5 mM HEPES, […]) containing a phosphodiesterase inhibitor (IBMX, 0.6 mM). […]
Result Type: EC50

Completed entries (count: 2):
Mol Smiles: O=C(c1ccc(C[C@@H]2CC[C@H]([C@H](O)c3ccccc3)N2)cc1)N1CCC(c2cccc(F)n2)CC1
EC50: 10 to 99.9 nM
--
Mol Smiles: CS(=O)(=O)C1CCN(C(=O)c2ccc(C[C@@H]3CC[C@H]([C@H](O)c4ccccc4)N3)cc2)CC1
EC50: 10 to 99.9 nM

Tell me the measured EC50 of O=C(c1ccc(C[C@@H]2CC[C@H]([C@H](O)c3ccccc3)N2)cc1)N1CCC(n2cnnc2)CC1 , please. 100 to 999 nM

Tell me the measured EC50 of O=C(c1ccc(C[C@@H]2CC[C@H]([C@H](O)c3ccccc3)N2)cc1)N1CCC(c2ncccn2)CC1 , please. 100 to 999 nM

Tell me the measured EC50 of O=C(c1ccc(C[C@@H]2CC[C@H]([C@H](O)c3ccccc3)N2)cc1)N1CCC(n2c(=O)[nH]c3cc(Cl)ccc32)CC1 , please. 100 to 999 nM

Tell me the measured EC50 of O=C(c1ccc(C[C@@H]2CC[C@H]([C@H](O)c3cccnc3)N2)cc1)N1CCC(S(=O)(=O)c2cccc(F)c2)CC1 , please. 100 to 999 nM

Tell me the measured EC50 of O=C(c1ccc(C[C@@H]2CC[C@H]([C@H](O)c3ccccc3)N2)cc1)N1CCC(COc2ccncn2)CC1 , please. 10 to 99.9 nM
